In this section we review reported protein stability index values for a set of variants.
B1: TRAF3IP2 (parent)
chain: PGQPLPGASVRGLHPVQKVILNYP

Variants of: B1
experiment-summary: protein stability index of a GFP-peptide fusion (GPS, HEK-293T) (PSI 1-6); higher = more stable;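 further: lentivirally expressed fusions sorted by FACS into six bins by GFP to DsRed ratio, PSI derived from sequencing read proportions per bin multiplied by bin number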
recorded-conditions: c terminus: a fixed tail appended
measured-quantity: protein stability index

[[record]]
variant_annotation = "Y23D"
observed_measurement = 4.72

[[record]]
variant_annotation = "L21T"
observed_measurement = 3.71

[[record]]
variant_annotation = "P24E"
observed_measurement = 3.31

[[record]]
variant_annotation = "G2L"
observed_measurement = 2.23

[[record]]
variant_annotation = "P24Q"
observed_measurement = 3.11

[[record]]
variant_annotation = "Q17A"
observed_measurement = 2.62

[[record]]
variant_annotation = "R11A"
observed_measurement = 2.6

[[record]]
variant_annotation = "Y23K"
observed_measurement = 4.43

[[record]]
variant_annotation = "V16L"
observed_measurement = 2.57

[[record]]
variant_annotation = "A8L"
observed_measurement = 3.21

[[record]]
variant_annotation = "P1E"
observed_measurement = 3.31

[[record]]
variant_annotation = "H14P"
observed_measurement = 3.67

[[record]]
variant_annotation = "L13W"
observed_measurement = 3.02

[[record]]
variant_annotation = "G2W"
observed_measurement = 2.15

[[record]]
variant_annotation = "P24N"
observed_measurement = 3.5

[[record]]
variant_annotation = "P24F"
observed_measurement = 1.78

[[record]]
variant_annotation = "P15C"
observed_measurement = 2.13

[[record]]
variant_annotation = "G7D"
observed_measurement = 3.22

[[record]]
variant_annotation = "Q3V"
observed_measurement = 3.42

[[record]]
variant_annotation = "A8H"
observed_measurement = 2.97

[[record]]
variant_annotation = "N22V"
observed_measurement = 1.69

[[record]]
variant_annotation = "I20V"
observed_measurement = 2.93

[[record]]
variant_annotation = "G2E"
observed_measurement = 3.79

[[record]]
variant_annotation = "P1G"
observed_measurement = 2.86

[[record]]
variant_annotation = "G12F"
observed_measurement = 2.3

[[record]]
variant_annotation = "H14W"
observed_measurement = 2.15

[[record]]
variant_annotation = "V10D"
observed_measurement = 2.96

[[record]]
variant_annotation = "P24H"
observed_measurement = 2.38

[[record]]
variant_annotation = "V19D"
observed_measurement = 3.23

[[record]]
variant_annotation = "L13R"
observed_measurement = 3.68

[[record]]
variant_annotation = "L21E"
observed_measurement = 3.71

[[record]]
variant_annotation = "L21F"
observed_measurement = 2.79

[[record]]
variant_annotation = "Y23Q"
observed_measurement = 4.07

[[record]]
variant_annotation = "P6L"
observed_measurement = 2.42

[[record]]
variant_annotation = "H14S"
observed_measurement = 3.19

[[record]]
variant_annotation = "G7I"
observed_measurement = 3.05

